Collected IC50 values appear next to each entry.
Target: FGFR2 (Homo sapiens)
Sequence (P21802 22-821): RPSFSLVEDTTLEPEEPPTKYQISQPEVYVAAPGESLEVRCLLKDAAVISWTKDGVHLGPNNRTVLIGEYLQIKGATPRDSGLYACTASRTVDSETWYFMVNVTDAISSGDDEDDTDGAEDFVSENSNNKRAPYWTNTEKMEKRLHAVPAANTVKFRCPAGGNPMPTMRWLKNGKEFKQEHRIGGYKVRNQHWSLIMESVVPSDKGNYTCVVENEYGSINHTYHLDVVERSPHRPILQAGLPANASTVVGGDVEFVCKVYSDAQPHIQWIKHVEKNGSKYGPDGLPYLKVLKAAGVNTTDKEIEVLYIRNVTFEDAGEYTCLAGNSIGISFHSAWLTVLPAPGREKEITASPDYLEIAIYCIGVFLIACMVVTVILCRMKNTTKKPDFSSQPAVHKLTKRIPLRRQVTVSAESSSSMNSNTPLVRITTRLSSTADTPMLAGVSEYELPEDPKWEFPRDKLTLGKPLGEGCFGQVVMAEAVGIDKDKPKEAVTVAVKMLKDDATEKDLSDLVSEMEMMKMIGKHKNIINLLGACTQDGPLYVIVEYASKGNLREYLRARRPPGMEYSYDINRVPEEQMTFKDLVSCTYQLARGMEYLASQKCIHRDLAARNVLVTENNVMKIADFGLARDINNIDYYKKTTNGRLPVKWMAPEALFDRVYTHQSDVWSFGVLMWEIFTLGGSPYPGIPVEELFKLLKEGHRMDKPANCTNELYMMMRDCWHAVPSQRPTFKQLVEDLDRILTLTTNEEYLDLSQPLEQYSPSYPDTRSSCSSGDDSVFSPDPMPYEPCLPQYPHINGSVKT
Assay: FGFR2 kinase activity inhibition (Caliper mobility shift assay)
Assay type: biochemical
Conditions: read-out: FGFR kinase activity inhibition (IC50, nM) FGFR2
Experimental: 1. FGFR1, FGFR2, FGFR3, and FGFR4 Kinase Activity Inhibition Experiments The FGFR1, FGFR2, FGFR3, and FGFR4 protein kinase activities were measured using the Caliper mobility shift assay. Compounds were solubilized in DMSO and diluted in kinase buffer. 5 µL of compound at 5 times final concentration (10% DMSO) was added to a 384-well plate. […] Conversion data was read on the Caliper EZ Reader II (Caliper Life Sciences). […]

{"columns": ["Compound", "Target Under Test", "IC50"],
 "data": [
  ["COc1cc(OC)c(Cl)c(NC(=O)N(C)c2cc(Nc3ccc4c(c3)OC[C@H]3CN(C)CCN43)ncn2)c1Cl", "FGFR2 (Homo sapiens)", "< 10 nM"],
  ["CCN1CCN2c3ccc(Nc4cc(N(C)C(=O)Nc5c(Cl)c(OC)cc(OC)c5Cl)ncn4)cc3OC[C@H]2C1", "FGFR2 (Homo sapiens)", "< 10 nM"],
  ["COc1cc(OC)c(Cl)c(NC(=O)N(C)c2cc(Nc3ccc4c(c3)OC[C@@H]3CN(C)CCN43)ncn2)c1Cl", "FGFR2 (Homo sapiens)", "< 10 nM"],
  ["CCS(=O)(=O)N1CCN2c3ccc(Nc4cc(N(C)C(=O)Nc5c(Cl)c(OC)cc(OC)c5Cl)ncn4)cc3OC[C@H]2C1 [Compound 10R]", "FGFR2 (Homo sapiens)", "< 50 nM"]
]}

----------
Collected IC50 values appear next to each entry.
biological target: FGFR1 (Homo sapiens); assay: FGFR1 kinase activity inhibition (Caliper mobility shift assay); format: biochemical; conditions: read-out: FGFR kinase activity inhibition (IC50, nM) FGFR1
Sequence (P11362 22-822): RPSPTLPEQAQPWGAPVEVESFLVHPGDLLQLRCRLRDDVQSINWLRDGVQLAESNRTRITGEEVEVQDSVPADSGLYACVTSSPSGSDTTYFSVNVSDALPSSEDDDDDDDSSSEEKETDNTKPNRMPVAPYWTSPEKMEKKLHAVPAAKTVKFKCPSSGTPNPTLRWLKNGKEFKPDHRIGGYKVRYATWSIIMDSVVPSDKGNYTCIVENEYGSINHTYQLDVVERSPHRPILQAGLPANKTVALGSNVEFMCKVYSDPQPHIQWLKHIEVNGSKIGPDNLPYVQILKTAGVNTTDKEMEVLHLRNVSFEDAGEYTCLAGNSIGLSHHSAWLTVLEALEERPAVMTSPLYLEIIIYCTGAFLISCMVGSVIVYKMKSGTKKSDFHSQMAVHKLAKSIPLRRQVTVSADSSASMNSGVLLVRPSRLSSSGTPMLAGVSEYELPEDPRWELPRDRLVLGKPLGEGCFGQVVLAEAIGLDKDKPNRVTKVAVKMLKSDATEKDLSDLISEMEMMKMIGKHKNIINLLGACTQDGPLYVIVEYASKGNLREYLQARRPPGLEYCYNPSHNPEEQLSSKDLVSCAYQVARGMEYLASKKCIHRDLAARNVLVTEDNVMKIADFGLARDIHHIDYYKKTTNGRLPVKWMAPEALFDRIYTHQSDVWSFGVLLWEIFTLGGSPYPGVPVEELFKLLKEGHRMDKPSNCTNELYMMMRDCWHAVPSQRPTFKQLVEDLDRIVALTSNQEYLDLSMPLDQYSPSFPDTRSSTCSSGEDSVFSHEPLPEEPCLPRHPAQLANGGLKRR
Measured Parameter: IC50

{"columns": ["Smiles Str", "Measured Parameter", "Measured Value"],
 "data": [
  ["COc1cc(OC)c(Cl)c(NC(=O)N(C)c2cc(Nc3ccc4c(c3)OCCN(C)CCO4)ncn2)c1Cl", "IC50", "< 20 nM"],
  ["COc1cc(OC)c(Cl)c(NC(=O)N(C)c2cc(Nc3ccc4c(c3)OC[C@H]3CN(C(C)=O)CCN43)ncn2)c1Cl", "IC50", "< 10 nM"],
  ["CCN1CCN2c3ccc(Nc4cc(N(C)C(=O)Nc5c(Cl)c(OC)cc(OC)c5Cl)ncn4)cc3OC[C@H]2C1", "IC50", "< 10 nM"],
  ["CCN1CCN2c3ccc(Nc4cc(N(C)C(=O)Nc5c(Cl)c(OC)cc(OC)c5Cl)ncn4)cc3OC[C@@H]2C1", "IC50", "< 10 nM"]
]}

From: patent US10934311B2
